Measured values drawn from ChEMBL document CHEMBL4507326 for this set.

- target of assay: Dual specificity protein kinase CLK4 (Homo sapiens, UniProt Q9HAZ1)
- Sequence (Q9HAZ1 whole entry): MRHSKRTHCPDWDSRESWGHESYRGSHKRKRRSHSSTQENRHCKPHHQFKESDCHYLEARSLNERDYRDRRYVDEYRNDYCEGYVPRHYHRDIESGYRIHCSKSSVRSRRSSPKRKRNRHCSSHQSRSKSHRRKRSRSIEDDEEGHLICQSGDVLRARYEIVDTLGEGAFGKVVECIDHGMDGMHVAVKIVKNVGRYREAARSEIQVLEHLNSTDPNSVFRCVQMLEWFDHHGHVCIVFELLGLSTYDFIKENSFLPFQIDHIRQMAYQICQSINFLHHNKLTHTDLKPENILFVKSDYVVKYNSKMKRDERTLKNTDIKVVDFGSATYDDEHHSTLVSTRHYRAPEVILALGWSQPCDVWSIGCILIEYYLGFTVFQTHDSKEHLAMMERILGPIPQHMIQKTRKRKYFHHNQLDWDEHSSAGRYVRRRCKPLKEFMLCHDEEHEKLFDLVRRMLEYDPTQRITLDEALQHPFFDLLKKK
recorded metric: pIC50
Field pIC50 (float): negative decimal logarithm of the concentration in molar.

INPUT: pIC50 lookup needed for CN1C(=O)[C@@H](N2CCc3c(nn(Cc4ccccc4)c3Br)C2=O)COc2ccccc21 , thanks.
OUTPUT: 6.00

###

- target of assay: Phosphatidylinositol 4,5-bisphosphate 3-kinase catalytic subunit beta isoform (Homo sapiens)
- Sequence (P42338 whole entry, canonical isoform): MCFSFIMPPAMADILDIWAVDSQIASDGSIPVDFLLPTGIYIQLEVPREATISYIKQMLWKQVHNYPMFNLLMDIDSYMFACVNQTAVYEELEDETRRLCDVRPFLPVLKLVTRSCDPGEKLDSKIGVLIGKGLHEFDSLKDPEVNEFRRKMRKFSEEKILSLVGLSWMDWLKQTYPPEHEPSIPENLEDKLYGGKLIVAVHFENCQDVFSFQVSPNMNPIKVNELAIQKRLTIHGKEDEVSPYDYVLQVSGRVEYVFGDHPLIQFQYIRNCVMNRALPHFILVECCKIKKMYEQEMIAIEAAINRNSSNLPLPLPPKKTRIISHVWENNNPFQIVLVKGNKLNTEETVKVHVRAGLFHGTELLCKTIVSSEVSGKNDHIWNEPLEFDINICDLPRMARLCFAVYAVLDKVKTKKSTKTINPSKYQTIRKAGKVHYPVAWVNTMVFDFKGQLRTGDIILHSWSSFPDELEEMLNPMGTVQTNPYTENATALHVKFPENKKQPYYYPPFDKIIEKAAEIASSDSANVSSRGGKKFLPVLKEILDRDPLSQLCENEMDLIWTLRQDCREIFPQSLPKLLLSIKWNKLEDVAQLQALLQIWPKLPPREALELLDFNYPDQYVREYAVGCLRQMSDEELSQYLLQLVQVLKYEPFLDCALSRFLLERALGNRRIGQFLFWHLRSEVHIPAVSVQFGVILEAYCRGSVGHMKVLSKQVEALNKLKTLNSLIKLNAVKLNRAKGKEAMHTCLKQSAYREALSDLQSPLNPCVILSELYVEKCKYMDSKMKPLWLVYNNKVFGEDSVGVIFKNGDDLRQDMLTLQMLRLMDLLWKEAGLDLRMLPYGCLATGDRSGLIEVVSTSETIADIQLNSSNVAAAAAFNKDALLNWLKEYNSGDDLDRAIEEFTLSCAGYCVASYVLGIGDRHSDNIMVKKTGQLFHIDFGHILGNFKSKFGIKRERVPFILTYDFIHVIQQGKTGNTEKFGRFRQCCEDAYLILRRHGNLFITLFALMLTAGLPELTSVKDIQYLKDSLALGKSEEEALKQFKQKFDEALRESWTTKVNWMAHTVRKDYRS
- test method notes: PIK3CB(PI3BCGRK) Takeda global kinase panel
recorded metric: IC50
I'd appreciate it if you wrote the number followed by its unit.

INPUT: Looking for the measured IC50 of CN1C(=O)[C@@H](N2CCc3c(nn(Cc4ccccc4)c3Br)C2=O)COc2ccccc21 , can you help?
OUTPUT: 1000 nM

###

- target of assay: Serine/threonine-protein kinase TBK1 (Homo sapiens, UniProt Q9UHD2)
- Sequence (Q9UHD2 whole entry): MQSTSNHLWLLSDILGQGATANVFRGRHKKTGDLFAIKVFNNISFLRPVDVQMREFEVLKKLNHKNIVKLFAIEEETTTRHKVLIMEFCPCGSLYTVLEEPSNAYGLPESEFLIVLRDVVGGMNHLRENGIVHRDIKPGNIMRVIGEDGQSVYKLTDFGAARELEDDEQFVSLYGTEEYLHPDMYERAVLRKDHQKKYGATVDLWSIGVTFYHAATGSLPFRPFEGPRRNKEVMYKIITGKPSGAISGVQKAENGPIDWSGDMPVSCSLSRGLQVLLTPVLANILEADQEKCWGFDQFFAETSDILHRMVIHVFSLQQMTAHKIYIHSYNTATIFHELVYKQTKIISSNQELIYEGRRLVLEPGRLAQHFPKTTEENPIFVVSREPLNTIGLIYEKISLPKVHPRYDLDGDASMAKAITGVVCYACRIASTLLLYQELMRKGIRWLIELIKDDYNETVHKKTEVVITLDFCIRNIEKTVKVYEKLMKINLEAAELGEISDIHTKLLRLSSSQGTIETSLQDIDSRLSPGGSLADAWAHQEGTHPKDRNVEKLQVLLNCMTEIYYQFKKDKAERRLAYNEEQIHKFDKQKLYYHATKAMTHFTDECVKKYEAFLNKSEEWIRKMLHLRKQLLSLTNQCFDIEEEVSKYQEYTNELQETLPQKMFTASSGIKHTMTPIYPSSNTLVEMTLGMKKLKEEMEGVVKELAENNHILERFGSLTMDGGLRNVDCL
recorded metric: IC50 (nM)
Write the value in nM as a bare number.

INPUT: # get_value(readout= IC50, system= Serine/threonine-protein kinase TBK1 (Homo sapiens, UniProt Q9UHD2)) for CN1C(=O)[C@@H](N2CCc3c(nn(Cc4ccccc4)c3Br)C2=O)COc2ccccc21
OUTPUT: 1000

###

- target of assay: Serine/threonine-protein kinase N2 (Homo sapiens, UniProt Q16513)
recorded metric: IC50 (nM)
Respond with the bare value in nM.

INPUT: Which measured IC50 value corresponds to CN1C(=O)[C@@H](N2CCc3c(nn(Cc4ccccc4)c3Br)C2=O)COc2ccccc21 [TP-030-2] ?
OUTPUT: 1000

###

- target of assay: UniProt:P49336
- Sequence (P49336 whole entry): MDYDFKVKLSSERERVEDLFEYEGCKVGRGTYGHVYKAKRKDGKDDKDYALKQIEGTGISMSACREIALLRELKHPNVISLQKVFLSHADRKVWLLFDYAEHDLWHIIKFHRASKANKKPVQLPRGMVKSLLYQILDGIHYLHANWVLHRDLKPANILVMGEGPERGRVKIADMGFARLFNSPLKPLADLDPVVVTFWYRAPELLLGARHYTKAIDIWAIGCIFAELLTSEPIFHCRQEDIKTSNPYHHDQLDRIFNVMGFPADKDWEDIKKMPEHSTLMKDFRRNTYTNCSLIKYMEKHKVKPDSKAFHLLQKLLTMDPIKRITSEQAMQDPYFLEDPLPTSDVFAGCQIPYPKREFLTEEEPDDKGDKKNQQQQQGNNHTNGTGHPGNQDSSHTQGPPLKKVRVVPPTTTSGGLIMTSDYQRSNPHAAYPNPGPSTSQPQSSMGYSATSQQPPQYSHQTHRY
recorded metric: pIC50
Remember the convention: pIC50 equals -log10 of concentration in molar.

INPUT: Recorded pIC50 of CN1C(=O)[C@@H](N2CCc3c(nn(Cc4ccccc4)c3Br)C2=O)COc2ccccc21 , please.
OUTPUT: 6.00

###

- target of assay: Cyclin-dependent kinase 18 (Homo sapiens)
- Sequence (Q07002 whole entry): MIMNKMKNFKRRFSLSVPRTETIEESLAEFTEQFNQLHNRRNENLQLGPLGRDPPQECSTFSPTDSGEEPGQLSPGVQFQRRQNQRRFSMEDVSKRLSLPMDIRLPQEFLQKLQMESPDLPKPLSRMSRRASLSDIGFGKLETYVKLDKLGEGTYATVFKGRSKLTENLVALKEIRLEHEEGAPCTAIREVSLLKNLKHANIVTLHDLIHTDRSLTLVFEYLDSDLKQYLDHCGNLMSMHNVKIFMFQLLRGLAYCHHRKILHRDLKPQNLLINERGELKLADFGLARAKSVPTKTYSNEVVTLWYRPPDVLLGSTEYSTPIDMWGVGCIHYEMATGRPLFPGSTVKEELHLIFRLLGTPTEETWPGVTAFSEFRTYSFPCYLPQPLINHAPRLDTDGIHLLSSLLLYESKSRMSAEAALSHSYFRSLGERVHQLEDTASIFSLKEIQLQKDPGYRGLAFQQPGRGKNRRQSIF
recorded metric: IC50 (µM)
Write it as a number; the unit µM goes unstated.

INPUT: Form field - read-out: IC50; system: Cyclin-dependent kinase 18 (Homo sapiens); submitted item: CN1C(=O)[C@@H](N2CCc3c(nn(Cc4ccccc4)c3Br)C2=O)COc2ccccc21
OUTPUT: 1

###

- target of assay: Casein kinase I isoform alpha-like (Homo sapiens)
- test method notes: CK1alpha2(C1ALLGI5) Takeda global kinase panel
recorded metric: pIC50
# pIC50 = -log10(concentration in molar units)

INPUT: Field request: pIC50 | item: CN1C(=O)[C@@H](N2CCc3c(nn(Cc4ccccc4)c3Br)C2=O)COc2ccccc21
OUTPUT: 6.00

###

- target of assay: Serine/threonine-protein kinase Nek11 (Homo sapiens, UniProt Q8NG66)
- Sequence (Q8NG66 whole entry): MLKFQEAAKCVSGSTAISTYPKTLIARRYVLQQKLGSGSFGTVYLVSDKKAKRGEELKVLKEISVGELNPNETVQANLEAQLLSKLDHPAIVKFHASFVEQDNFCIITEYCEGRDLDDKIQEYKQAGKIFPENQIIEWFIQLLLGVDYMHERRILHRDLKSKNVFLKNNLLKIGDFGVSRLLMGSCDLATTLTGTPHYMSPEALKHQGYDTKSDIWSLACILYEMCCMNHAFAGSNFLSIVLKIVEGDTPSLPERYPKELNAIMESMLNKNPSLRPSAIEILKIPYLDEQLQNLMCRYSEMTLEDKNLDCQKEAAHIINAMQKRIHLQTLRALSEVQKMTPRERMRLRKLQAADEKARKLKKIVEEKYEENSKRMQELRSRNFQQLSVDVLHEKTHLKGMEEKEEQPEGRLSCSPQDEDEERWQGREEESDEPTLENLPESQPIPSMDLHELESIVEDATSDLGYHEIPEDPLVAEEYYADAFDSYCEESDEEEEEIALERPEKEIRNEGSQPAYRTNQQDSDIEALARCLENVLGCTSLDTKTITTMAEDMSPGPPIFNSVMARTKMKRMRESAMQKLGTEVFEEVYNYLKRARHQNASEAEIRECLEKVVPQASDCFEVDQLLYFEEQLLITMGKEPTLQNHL
recorded metric: pIC50
The quantity pIC50 is defined as the negative base-10 logarithm of the molar concentration.

INPUT: What is its pIC50 for Serine/threonine-protein kinase Nek11 (Homo sapiens, UniProt Q8NG66)? Entry: CN1C(=O)[C@@H](N2CCc3c(nn(Cc4ccccc4)c3Br)C2=O)COc2ccccc21
OUTPUT: 6.00

###

- target of assay: Serine/threonine-protein kinase TNNI3K (Homo sapiens)
- Sequence (Q59H18 whole entry): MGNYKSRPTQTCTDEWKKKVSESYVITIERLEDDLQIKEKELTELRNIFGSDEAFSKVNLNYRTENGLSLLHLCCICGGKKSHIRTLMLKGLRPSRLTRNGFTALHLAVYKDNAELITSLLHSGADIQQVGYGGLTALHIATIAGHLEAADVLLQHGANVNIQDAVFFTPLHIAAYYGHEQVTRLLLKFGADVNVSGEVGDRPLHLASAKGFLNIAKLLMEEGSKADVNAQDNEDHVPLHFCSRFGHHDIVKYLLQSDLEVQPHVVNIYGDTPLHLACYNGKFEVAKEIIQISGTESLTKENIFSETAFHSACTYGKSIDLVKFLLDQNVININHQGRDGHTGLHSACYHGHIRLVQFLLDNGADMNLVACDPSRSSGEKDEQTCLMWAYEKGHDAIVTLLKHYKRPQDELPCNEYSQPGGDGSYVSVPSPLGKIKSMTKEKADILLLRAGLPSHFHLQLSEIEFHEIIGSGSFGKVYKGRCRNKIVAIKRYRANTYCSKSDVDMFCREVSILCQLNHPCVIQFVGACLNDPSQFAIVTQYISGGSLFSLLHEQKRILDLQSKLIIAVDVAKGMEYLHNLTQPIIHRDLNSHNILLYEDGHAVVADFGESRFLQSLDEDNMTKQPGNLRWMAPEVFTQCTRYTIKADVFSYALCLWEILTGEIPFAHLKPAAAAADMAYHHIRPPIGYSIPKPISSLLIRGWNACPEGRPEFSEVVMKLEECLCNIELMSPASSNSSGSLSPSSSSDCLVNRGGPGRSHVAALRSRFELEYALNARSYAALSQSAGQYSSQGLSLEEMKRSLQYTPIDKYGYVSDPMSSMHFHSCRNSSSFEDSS
recorded metric: IC50 (nM)
All answers are understood in nM, so give the number only.

INPUT: Find the measured IC50: item CN1C(=O)[C@@H](N2CCc3c(nn(Cc4ccccc4)c3Br)C2=O)COc2ccccc21 [TP-030-2] , target or system Serine/threonine-protein kinase TNNI3K (Homo sapiens).
OUTPUT: 1000

###

- target of assay: UniProt:P49759
recorded metric: pIC50
Please express pIC50 as -log10 of the molar concentration.

INPUT: pIC50 lookup needed for CN1C(=O)[C@@H](N2CCc3c(nn(Cc4ccccc4)c3Br)C2=O)COc2ccccc21 , thanks.
OUTPUT: 6.00

###

- target of assay: Casein kinase I isoform alpha (Homo sapiens, UniProt P48729)
- Sequence (P48729 whole entry, canonical isoform): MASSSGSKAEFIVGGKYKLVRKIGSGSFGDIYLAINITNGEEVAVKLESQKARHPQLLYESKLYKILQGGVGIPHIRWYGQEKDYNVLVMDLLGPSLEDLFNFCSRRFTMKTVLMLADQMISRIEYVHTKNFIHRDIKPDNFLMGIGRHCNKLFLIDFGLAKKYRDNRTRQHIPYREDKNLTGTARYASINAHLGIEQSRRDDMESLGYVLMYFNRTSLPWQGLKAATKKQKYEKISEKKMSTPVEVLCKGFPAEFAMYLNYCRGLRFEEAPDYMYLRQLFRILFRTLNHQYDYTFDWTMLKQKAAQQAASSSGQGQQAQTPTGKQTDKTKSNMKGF
- test method notes: CK1alpha(C1A1PHY1) Takeda global kinase panel
recorded metric: IC50 (nM)
Lab book: enter the figure in nM, no units written.

INPUT: Name the reported IC50 value associated with the compound CN1C(=O)[C@@H](N2CCc3c(nn(Cc4ccccc4)c3Br)C2=O)COc2ccccc21
OUTPUT: 1000

###

- target of assay: Mitogen-activated protein kinase kinase kinase 13 (Homo sapiens, UniProt O43283)
- test method notes: LZK(M313LGRJ) Takeda global kinase panel
recorded metric: pIC50
Schema: pIC50 number; meaning minus log10 of the concentration expressed in molar units.

INPUT: Which pIC50 is reported for this compound? CN1C(=O)[C@@H](N2CCc3c(nn(Cc4ccccc4)c3Br)C2=O)COc2ccccc21 [TP-030-2]
OUTPUT: 6.00

###

- target of assay: Cyclin-dependent kinase 12 (Homo sapiens, UniProt Q9NYV4)
- Sequence (Q9NYV4 whole entry): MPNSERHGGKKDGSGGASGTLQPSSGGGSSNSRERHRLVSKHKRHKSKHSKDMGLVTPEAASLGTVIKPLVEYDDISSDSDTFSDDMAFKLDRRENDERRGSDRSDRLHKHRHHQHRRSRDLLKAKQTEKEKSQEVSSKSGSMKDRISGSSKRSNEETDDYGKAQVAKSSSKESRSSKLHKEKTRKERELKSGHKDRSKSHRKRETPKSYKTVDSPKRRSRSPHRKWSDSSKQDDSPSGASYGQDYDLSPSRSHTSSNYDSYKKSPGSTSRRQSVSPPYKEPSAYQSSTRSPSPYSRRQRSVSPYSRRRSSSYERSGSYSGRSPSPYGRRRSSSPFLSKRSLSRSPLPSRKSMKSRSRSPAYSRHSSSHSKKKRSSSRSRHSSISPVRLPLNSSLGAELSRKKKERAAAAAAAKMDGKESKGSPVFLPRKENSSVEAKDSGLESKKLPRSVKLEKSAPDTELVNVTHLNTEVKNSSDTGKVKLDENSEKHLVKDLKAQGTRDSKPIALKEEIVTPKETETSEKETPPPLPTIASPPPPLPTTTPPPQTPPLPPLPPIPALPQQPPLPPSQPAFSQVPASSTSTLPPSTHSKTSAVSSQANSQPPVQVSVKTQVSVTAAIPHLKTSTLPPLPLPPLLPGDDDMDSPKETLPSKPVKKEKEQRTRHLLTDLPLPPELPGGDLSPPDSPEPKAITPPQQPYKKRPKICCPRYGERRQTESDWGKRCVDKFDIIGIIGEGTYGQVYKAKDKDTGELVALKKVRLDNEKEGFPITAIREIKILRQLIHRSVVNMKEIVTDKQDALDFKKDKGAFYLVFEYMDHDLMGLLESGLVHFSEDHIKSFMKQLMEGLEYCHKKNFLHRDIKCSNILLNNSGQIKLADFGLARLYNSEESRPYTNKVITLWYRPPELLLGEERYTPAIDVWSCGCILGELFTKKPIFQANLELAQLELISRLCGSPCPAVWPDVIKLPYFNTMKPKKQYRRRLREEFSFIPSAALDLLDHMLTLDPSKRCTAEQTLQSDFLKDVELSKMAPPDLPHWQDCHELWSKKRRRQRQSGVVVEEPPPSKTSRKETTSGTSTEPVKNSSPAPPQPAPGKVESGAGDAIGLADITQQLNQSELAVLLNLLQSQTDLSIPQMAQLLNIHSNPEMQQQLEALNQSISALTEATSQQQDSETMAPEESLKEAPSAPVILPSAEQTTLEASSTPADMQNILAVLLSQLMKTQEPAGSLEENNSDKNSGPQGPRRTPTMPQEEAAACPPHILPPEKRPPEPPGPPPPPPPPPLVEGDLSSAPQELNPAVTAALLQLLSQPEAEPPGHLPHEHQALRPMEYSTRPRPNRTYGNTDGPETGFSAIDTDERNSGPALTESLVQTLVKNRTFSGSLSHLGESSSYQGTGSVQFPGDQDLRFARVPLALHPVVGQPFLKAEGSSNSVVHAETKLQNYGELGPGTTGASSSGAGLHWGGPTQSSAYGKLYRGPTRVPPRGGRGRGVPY
recorded metric: IC50 (µM)
// return numeric value only (unit: µM, not printed)

INPUT: What IC50 value was documented for this molecule, CN1C(=O)[C@@H](N2CCc3c(nn(Cc4ccccc4)c3Br)C2=O)COc2ccccc21 ?
OUTPUT: 1

###

- target of assay: Uncharacterized serine/threonine-protein kinase SBK3 (Homo sapiens, UniProt P0C264)
- Sequence (P0C264 whole entry): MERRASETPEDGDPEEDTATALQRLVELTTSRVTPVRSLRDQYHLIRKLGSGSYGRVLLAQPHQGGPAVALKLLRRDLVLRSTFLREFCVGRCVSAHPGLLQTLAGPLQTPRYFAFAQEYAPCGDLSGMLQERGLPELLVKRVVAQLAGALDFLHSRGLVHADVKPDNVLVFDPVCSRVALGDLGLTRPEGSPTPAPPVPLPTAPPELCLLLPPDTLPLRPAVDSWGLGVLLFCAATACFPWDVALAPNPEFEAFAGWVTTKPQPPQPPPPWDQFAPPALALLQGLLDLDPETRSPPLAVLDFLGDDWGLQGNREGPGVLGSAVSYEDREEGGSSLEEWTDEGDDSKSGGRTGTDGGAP
recorded metric: IC50 (µM)
Write the answer as a number in µM, unit excluded.

INPUT: I have this compound here, CN1C(=O)[C@@H](N2CCc3c(nn(Cc4ccccc4)c3Br)C2=O)COc2ccccc21 , and I need its recorded IC50.
OUTPUT: 1
